Hey, just so you know, these numbers are from BindingDB's records for doi:10.3109/14756366.2012.742517.

Known IC50 of a selection of compounds
Target: Pancreatic triacylglycerol lipase (Sus scrofa)
Sequence (P00591 whole entry): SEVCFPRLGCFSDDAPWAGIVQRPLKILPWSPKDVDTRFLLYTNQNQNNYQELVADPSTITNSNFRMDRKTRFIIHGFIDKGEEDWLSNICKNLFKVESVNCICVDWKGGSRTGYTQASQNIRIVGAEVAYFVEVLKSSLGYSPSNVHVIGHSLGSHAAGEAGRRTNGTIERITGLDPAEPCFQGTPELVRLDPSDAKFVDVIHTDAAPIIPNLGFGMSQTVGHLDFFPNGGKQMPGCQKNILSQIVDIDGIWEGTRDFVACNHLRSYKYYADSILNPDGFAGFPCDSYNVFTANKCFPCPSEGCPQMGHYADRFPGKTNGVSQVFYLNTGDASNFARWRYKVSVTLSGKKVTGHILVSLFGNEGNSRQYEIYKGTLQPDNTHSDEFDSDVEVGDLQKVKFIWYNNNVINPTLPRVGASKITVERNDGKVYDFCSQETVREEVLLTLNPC
value type: IC50 (µM)

{"compound": "Oc1cc(O)c2c(c1)-c1ccccc1CCO2 [9,10-Dihydro-dibenzoxepin-2,4-diol (15)]", "operator": ">", "assay result": 50}
{"compound": "COc1cc(CCc2ccccc2O)cc(OC)c1OC", "operator": "=", "assay result": 45.7}
{"compound": "COc1cc(CC[C@@H](O)C[C@H](O)CCc2ccc(O)c(OC)c2)ccc1O", "operator": ">", "assay result": 50}
{"compound": "Oc1ccc(CC[C@@H](O)C[C@H](O)CCc2ccc(O)cc2)cc1", "operator": ">", "assay result": 50}
{"compound": "Oc1cc(O)cc(CCc2ccccc2O)c1 [2',3,5-Trihydroxybibenzyl (2)]", "operator": "=", "assay result": 29.2}
{"compound": "COc1cc(CCc2ccccc2O)cc(OC)c1 [3,5-Dimethoxy-2'hydroxybibenzyl (7)]", "operator": "=", "assay result": 44.1}
{"compound": "COc1cc(CCc2cc(O)cc(O)c2)ccc1O", "operator": "=", "assay result": 13.5}
{"compound": "COc1cc(O)cc(CCc2ccccc2O)c1 [2-(3-hydroxy-5-methoxyphenethyl)phenol]", "operator": "=", "assay result": 30.1}
{"compound": "COc1cc2c(ccc3cc(O)cc(OC)c32)cc1O", "operator": "=", "assay result": 12.7}
{"compound": "COc1cc(/C=C/C(=O)OCCc2ccc(O)cc2)ccc1O [p-hydroxyphenethyl trans-ferulate]", "operator": ">", "assay result": 50}

---

Molecular target: Pancreatic triacylglycerol lipase (Sus scrofa, UniProt P00591)
Sequence (P00591 whole entry): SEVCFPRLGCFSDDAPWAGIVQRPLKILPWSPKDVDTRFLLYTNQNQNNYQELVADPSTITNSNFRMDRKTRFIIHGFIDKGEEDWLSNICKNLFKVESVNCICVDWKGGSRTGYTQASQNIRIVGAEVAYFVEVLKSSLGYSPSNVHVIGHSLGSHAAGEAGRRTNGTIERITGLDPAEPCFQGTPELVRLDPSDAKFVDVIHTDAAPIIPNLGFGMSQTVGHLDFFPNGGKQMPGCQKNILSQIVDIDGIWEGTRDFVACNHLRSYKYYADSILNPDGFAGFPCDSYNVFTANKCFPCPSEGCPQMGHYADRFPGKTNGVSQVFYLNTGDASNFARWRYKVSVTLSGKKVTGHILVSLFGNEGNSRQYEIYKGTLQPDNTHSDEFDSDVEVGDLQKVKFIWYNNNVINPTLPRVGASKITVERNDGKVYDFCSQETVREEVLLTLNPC

{"molecule": "Oc1cc(O)cc(CCc2ccccc2O)c1 [2',3,5-Trihydroxybibenzyl (2)]", "readout units": "µM", "Ki": 6.45}
{"molecule": "COc1cc(CCc2ccccc2O)cc(OC)c1 [3,5-Dimethoxy-2'hydroxybibenzyl (7)]", "readout units": "µM", "Ki": 9.28}
{"molecule": "O=C(/C=C/C=C/c1ccc(O)cc1)/C=C/c1ccc(O)cc1", "readout units": "µM", "Ki": 3.34}
{"molecule": "COc1cc(CCc2cc(O)cc(O)c2)ccc1O [Tristin (1)]", "readout units": "µM", "Ki": 2.75}
{"molecule": "COc1cc2c(ccc3cc(O)cc(OC)c32)cc1O [3,5-Dimethoxy-2,7-phenanthrenediol (11)]", "readout units": "µM", "Ki": 2.67}
